- target or system: Aurora kinase B (Homo sapiens) (UniProt Q96GD4)
- Sequence (Q96GD4 whole entry): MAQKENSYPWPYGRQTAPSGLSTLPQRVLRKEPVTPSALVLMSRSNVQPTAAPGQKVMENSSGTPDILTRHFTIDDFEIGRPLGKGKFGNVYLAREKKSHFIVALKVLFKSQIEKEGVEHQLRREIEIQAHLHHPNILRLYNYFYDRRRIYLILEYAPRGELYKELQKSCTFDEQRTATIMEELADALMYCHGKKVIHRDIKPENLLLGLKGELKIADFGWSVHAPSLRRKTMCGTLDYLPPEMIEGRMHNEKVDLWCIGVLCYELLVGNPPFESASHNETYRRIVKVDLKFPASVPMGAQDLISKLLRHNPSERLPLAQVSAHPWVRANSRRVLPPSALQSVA
- cond: at 10 µM
Parameter residual activity: see the listing below.
Record the value in %, omitting the unit from your answer.

Example results:
CC(=O)O/N=C1\C(=C2\C(=O)Nc3cc(Br)ccc32)Nc2ccccc21 = 6
Cc1cccc(-c2[nH]c(C(C)(C)C)nc2-c2ccc3c(c2)OCO3)n1 = 95
O=[N+]([O-])c1ccc(-c2nc(-c3ccc(F)cc3)c(-c3ccncc3)[nH]2)cc1 = 90

Using known records, supply residual activity for O=c1cc(-c2cccc3c2Sc2ccccc2S3)oc(N2CCOCC2)c1
92

Using known records, supply residual activity for COc1cc2ncnc(N3CCN(C(=O)Nc4ccc(Oc5ccccc5)cc4)CC3)c2cc1OC
7

Using known records, supply residual activity for N#CC(C#N)=C(N)/C(C#N)=C/c1ccc(O)cc1
62

Using known records, supply residual activity for COc1cc2ncc(-c3ccccc3)nc2cc1OC
50

Using known records, supply residual activity for CO[C@@H]1[C@H](N(C)C(=O)c2ccccc2)C[C@H]2O[C@]1(C)n1c3ccccc3c3c4c(c5c6ccccc6n2c5c31)C(=O)NC4
3

Using known records, supply residual activity for CC(C)n1cnc2/c(=N/c3cccc(Cl)c3)nc(NCCO)[nH]c21
3

---

- target or system: Serine/threonine-protein kinase STK11 (Homo sapiens)
- Sequence (whole entry): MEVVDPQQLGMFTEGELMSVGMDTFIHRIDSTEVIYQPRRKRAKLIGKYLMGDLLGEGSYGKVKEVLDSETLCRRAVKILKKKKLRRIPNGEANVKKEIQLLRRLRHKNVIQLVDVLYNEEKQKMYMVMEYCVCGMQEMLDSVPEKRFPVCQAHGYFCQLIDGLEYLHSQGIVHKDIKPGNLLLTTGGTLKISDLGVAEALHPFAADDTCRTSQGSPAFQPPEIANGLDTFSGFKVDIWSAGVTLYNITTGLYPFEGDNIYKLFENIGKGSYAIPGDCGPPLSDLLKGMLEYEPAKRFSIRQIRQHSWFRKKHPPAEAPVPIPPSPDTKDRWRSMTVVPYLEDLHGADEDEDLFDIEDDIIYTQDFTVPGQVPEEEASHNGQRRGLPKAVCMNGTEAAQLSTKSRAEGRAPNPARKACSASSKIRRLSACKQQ
- cond: at 1 µM
Parameter residual activity: see the listing below.
Record the value in %, omitting the unit from your answer.

Example results:
CCOc1cc2ncnc(Nc3cccc(Br)c3)c2cc1OCC = 98
O=C1Nc2ccc(Br)cc2/C1=C\c1cc2c([nH]1)CCCC2 = 97
O=c1c2ccccc2[nH]c(=S)n1CCN1CCC(=C(c2ccc(F)cc2)c2ccc(F)cc2)CC1 = 123
Cc1cc2ncc(-c3ccccc3)nc2cc1C = 108

Using known records, supply residual activity for O=C1NC(=O)c2cc(Nc3ccc(F)cc3)c(Nc3ccc(F)cc3)cc21
102

Using known records, supply residual activity for Nc1ccc2ncnc(NCCc3ccc(Oc4ccccc4)cc3)c2c1
105

---

- target or system: BDNF/NT-3 growth factors receptor (Homo sapiens) (UniProt Q16620)
- Sequence (Q16620 32-822 limits assumed): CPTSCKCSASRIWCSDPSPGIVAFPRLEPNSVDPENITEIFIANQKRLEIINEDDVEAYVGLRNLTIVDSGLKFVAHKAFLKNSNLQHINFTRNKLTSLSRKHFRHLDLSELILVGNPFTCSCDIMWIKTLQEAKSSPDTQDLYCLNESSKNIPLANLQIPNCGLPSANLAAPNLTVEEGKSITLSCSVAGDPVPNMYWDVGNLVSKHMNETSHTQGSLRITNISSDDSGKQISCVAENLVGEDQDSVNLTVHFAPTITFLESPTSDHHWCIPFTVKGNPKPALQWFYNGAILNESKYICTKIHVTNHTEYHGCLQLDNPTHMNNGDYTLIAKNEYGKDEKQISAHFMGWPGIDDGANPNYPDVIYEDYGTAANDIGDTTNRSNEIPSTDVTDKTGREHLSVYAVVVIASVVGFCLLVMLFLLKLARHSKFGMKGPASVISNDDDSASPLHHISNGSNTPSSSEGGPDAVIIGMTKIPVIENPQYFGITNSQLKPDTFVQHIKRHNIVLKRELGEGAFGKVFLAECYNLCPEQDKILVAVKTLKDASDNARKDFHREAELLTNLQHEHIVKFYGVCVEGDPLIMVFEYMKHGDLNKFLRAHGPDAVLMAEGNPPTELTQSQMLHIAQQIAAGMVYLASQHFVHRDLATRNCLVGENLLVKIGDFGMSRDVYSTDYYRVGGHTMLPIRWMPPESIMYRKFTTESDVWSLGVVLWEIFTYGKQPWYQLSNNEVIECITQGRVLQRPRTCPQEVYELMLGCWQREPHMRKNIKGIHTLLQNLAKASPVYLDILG
- cond: at 1 µM
Threshold check on residual activity: at or above 50% gives Condition met, strictly below gives Condition not met.

O=C1Nc2ccc(Br)cc2/C1=C\c1cc2c([nH]1)CCCC2 = Condition not met
COc1ccc(OC)c2c(=S)c3ccccc3[nH]c12 = Condition met
COc1cccc(-c2cc(=O)c3ccccc3o2)c1N = Condition met

Does residual activity meet or surpass 50% for O=C1NC(=O)/C(=C/c2ccc3c(c2)OC(F)(F)O3)S1 ?
Condition not met

Does residual activity meet or surpass 50% for Oc1ccc(-c2nc(-c3ccc(F)cc3)c(-c3ccncc3)[nH]2)cc1 ?
Condition met

Does residual activity meet or surpass 50% for Cc1nc2cc3nc(-c4cccs4)cnc3cc2n1C ?
Condition met

Does residual activity meet or surpass 50% for CCC(=O)Nc1ccc2ncnc(Nc3cccc(Br)c3)c2c1 ?
Condition met

Does residual activity meet or surpass 50% for N#CC(C#N)=C(N)/C(C#N)=C/c1ccc(O)cc1 ?
Condition met

Does residual activity meet or surpass 50% for O=Nc1c(-c2c(O)[nH]c3ccccc23)[nH]c2ccccc12 ?
Condition not met

Does residual activity meet or surpass 50% for c1ccc(-c2n[nH]c3c2oc2ccccc23)cc1 ?
Condition not met

Does residual activity meet or surpass 50% for CO[C@@H]1[C@H](N(C)C(=O)c2ccccc2)C[C@H]2O[C@]1(C)n1c3ccccc3c3c4c(c5c6ccccc6n2c5c31)C(=O)NC4 ?
Condition not met

---

Parameter residual activity: see the listing below.
- target or system: Serine/threonine-protein kinase PAK 2 (Homo sapiens)
- cond: at 1 µM
Quick note: number first, unit second.

Example results:
Cc1nc(-c2ccccc2)c(-c2ccncc2)o1 = 102%
O=C1Nc2ccccc2/C1=C1/Nc2ccccc2/C1=N\OCCC(O)CO (configuration not stated) = 80%
Cc1nc2cc3nc(-c4cccs4)cnc3cc2n1C = 99%
CO[C@@H]1[C@H](N(C)C(=O)c2ccccc2)C[C@H]2O[C@]1(C)n1c3ccccc3c3c4c(c5c6ccccc6n2c5c31)C(=O)NC4 = 72%
CCN(CC)CCCCN1c2ccccc2Oc2ccc(Cl)cc21 = 117%
COc1cc2ncnc(Nc3ccc(Oc4ccccc4)cc3)c2cc1OC = 98%
Cc1cc2ncc(-c3ccccc3)nc2cc1C = 97%
COc1ccc(S(=O)(=O)N(CCO)c2ccccc2CN(C)C/C=C/c2ccc(Cl)cc2)cc1 = 97%
O=C(Nc1cccc(Nc2cc(Nc3cccc(C(F)(F)F)c3)ncn2)c1)C1CC1 = 116%
O=C1NC(=O)c2c1c1c3ccccc3[nH]c1c1[nH]c3cc(Br)ccc3c21 = 122%

Report value: residual activity, system: Serine/threonine-protein kinase PAK 2 (Homo sapiens), molecule: CC(=O)O/N=C1\C(=C2\C(=O)Nc3cc(Br)ccc32)Nc2ccccc21
104%

Report value: residual activity, system: Serine/threonine-protein kinase PAK 2 (Homo sapiens), molecule: COc1ccc(OC)c2c(=S)c3ccccc3[nH]c12
90%

Report value: residual activity, system: Serine/threonine-protein kinase PAK 2 (Homo sapiens), molecule: COc1ccc(C(=O)Nc2sc3c(c2C(N)=O)CCCC3)cc1OC
96%

Report value: residual activity, system: Serine/threonine-protein kinase PAK 2 (Homo sapiens), molecule: O=C1NC(=O)c2cc(Nc3ccc(F)cc3)c(Nc3ccc(F)cc3)cc21
107%

Report value: residual activity, system: Serine/threonine-protein kinase PAK 2 (Homo sapiens), molecule: CN(C)c1ccc(/C=C2\C(=O)Nc3ccccc32)cc1
96%

Report value: residual activity, system: Serine/threonine-protein kinase PAK 2 (Homo sapiens), molecule: CO[C@H]1[C@@H](OC)C[C@H](C)[C@@H](OC)C2=CC(=O)C=C(NC(=O)/C(C)=C/C=C/[C@H](OC)[C@@H](OC(N)=O)/C(C)=C/[C@@H]1C)C2=O
108%

---

- target or system: Serine/threonine-protein kinase Chk2 (Homo sapiens) (UniProt O96017)
- Sequence (O96017 whole entry): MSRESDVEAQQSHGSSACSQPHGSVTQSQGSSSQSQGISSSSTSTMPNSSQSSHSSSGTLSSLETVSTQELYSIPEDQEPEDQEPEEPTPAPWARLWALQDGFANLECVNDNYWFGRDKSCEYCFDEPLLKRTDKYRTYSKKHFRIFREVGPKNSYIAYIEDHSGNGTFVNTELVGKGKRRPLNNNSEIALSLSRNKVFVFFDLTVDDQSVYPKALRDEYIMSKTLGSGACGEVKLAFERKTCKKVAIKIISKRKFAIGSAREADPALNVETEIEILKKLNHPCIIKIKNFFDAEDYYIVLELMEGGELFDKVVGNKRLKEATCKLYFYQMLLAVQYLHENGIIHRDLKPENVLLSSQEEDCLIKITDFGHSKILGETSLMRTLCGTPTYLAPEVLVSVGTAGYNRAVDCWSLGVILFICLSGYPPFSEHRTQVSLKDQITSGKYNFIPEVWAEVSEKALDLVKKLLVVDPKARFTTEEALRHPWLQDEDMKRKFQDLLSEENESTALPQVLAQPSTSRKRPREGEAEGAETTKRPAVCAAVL
- cond: at 1 µM
Simple rule here: residual activity less than 90% is rule met, otherwise rule not met.

Take a look at these entries with their results.
COc1ccc(OC)c2c(=S)c3ccccc3[nH]c12 = rule not met
N#C/C(=C(\N)Sc1ccc(N)cc1)c1ccccc1C(F)(F)F = rule not met
COc1ccc(S(=O)(=O)N(CCO)c2ccccc2CN(C)C/C=C/c2ccc(Cl)cc2)cc1 = rule not met
O=c1c2ccccc2[nH]c(=S)n1CCN1CCC(=C(c2ccc(F)cc2)c2ccc(F)cc2)CC1 = rule not met
Nc1ccc2ncnc(NCCc3ccc(Oc4ccccc4)cc3)c2c1 = rule met

Answer whether the compound Nc1cccc(-c2cc3c(Oc4cccc(O)c4)ncnc3[nH]2)c1 has residual activity strictly less than 90%
rule met

Answer whether the compound COc1cc2ncnc(Nc3ccc(O)c(Br)c3)c2cc1OC has residual activity strictly less than 90%
rule met

---

- target or system: Death-associated protein kinase 3 (Homo sapiens) (UniProt O43293)
- Sequence (O43293 whole entry, looked up): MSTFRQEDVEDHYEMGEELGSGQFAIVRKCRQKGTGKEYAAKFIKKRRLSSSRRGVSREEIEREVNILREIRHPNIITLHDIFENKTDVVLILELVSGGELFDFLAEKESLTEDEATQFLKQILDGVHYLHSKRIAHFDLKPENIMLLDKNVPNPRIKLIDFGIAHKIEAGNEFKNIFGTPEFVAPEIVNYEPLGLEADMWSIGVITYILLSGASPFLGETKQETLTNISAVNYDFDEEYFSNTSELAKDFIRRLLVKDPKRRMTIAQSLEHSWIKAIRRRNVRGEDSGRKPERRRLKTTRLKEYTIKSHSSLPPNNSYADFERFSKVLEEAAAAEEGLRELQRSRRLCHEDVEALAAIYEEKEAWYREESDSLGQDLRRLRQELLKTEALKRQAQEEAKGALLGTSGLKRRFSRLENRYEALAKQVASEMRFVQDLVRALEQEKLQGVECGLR
- cond: at 1 µM
Threshold check on residual activity: at or above 90% gives yes, strictly below gives no.

Does residual activity meet or surpass 90% for CNc1cc2c(Nc3cccc(Br)c3)ncnc2cn1 ?
no

Does residual activity meet or surpass 90% for Cc1cc(Nc2nc(-c3ccccc3)nc3ccccc23)n[nH]1 ?
no

Does residual activity meet or surpass 90% for CC(C)n1cnc2c(NCc3ccccc3)nc(NCCCO)nc21 ?
no

Does residual activity meet or surpass 90% for CCN(CC)CCCCN1c2ccccc2Oc2ccc(Cl)cc21 ?
yes

Does residual activity meet or surpass 90% for Nc1n[nH]c2nnc(-c3c(-c4ccccc4)nn4ccccc34)cc12 ?
yes

---

- target or system: Serine/threonine-protein kinase WNK3 (Homo sapiens) (UniProt Q9BYP7);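 further: remaining kinase activity expressed versus control, assayed in 8 mM MOPS buffer pH 7.0 with 0.2 mM EDTA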
- Sequence (Q9BYP7 whole entry): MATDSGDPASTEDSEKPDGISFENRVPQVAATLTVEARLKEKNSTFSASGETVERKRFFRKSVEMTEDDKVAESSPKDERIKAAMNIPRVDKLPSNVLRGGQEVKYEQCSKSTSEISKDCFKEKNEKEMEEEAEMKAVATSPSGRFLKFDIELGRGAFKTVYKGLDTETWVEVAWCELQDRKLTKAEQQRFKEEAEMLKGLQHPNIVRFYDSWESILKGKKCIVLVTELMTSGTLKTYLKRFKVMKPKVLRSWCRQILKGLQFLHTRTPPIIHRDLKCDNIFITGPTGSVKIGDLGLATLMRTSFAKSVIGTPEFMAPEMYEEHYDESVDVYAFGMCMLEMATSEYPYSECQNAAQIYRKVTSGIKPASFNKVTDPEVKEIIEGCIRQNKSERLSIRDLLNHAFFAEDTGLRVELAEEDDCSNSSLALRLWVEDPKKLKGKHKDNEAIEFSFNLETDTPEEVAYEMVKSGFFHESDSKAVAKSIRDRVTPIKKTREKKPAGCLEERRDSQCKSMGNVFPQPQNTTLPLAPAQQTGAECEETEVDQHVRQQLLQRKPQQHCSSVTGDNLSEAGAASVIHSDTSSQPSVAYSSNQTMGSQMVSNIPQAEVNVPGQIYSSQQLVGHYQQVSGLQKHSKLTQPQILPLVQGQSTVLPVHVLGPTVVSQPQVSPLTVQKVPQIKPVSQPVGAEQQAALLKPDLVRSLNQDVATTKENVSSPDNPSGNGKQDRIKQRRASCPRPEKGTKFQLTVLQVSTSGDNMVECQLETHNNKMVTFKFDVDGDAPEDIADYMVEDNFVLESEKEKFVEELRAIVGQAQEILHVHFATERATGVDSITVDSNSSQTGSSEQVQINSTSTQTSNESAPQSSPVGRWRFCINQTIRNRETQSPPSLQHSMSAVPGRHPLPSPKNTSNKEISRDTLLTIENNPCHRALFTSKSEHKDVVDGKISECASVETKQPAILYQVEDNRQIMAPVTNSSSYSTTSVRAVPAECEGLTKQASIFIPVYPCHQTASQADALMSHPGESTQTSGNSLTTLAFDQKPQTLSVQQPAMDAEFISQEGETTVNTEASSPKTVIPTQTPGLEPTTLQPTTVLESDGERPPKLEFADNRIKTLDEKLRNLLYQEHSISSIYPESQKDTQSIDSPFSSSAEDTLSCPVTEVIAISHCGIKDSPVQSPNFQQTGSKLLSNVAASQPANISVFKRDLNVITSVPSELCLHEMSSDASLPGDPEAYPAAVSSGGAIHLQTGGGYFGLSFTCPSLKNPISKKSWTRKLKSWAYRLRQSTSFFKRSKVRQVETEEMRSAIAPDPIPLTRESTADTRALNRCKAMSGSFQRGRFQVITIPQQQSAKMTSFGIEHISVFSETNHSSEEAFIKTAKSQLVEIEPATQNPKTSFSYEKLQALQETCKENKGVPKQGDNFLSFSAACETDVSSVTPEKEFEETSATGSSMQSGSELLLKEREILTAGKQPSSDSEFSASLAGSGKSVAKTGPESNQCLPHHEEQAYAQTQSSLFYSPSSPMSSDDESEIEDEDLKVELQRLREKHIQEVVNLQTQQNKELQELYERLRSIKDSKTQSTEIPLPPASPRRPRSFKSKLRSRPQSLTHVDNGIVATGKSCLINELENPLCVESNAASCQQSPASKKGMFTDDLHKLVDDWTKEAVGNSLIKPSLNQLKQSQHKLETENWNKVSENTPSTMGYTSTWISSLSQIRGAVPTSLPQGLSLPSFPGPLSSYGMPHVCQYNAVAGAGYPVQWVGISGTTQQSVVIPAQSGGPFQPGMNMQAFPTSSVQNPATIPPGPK
- cond: at 1 µM
- Description: Millipore: Percentage of residual kinase activity of WNK3 at 1uM relative to control. Control inhibitor: Phosphoric acid* at 0.3uM. Buffer: 8 mM MOPS pH 7.0, 0.2 mM EDTA
readout kind: residual activity

CO[C@H]1[C@@H](OC)C[C@H](C)[C@@H](OC)C2=CC(=O)C=C(NC(=O)/C(C)=C/C=C/[C@H](OC)[C@@H](OC(N)=O)/C(C)=C/[C@@H]1C)C2=O = 112% (inactive)

Using known records, supply residual activity for Cc1ccc(NC2=CC(=O)c3sc(C)nc3C2=O)cc1
80% (inactive)

Using known records, supply residual activity for Cn1nc2c3c(cccc31)C(=O)c1ccccc1-2
95% (inactive)

Using known records, supply residual activity for N#C/C(=C(\N)Sc1ccc(N)cc1)c1ccccc1C(F)(F)F
93% (inactive)

Using known records, supply residual activity for O=C(Nc1cccc(Nc2cc(Nc3cccc(C(F)(F)F)c3)ncn2)c1)C1CC1
95% (inactive)

Using known records, supply residual activity for Cc1cccc(-c2[nH]c(C(C)(C)C)nc2-c2ccc3c(c2)OCO3)n1
89% (inactive)

Using known records, supply residual activity for COc1cc2ncnc(Nc3ccc(NC(=O)c4ccccc4)cc3)c2cc1OC
59% (inactive)

Using known records, supply residual activity for COc1ccc(CNc2nc(N(CCO)CCO)nc3c2ncn3C(C)C)cc1
97% (inactive)

Using known records, supply residual activity for Nc1ccc2ncnc(NCCc3ccc(Oc4ccccc4)cc3)c2c1
102% (inactive)
